These entries and their values trace back to ChEMBL document CHEMBL1201862.

Kindly state GI50 for each of the entries shown.
test system: 786-0; assay: NCI tumour cell line growth inhibition, 48 h
Active and inactive are the calls of the source. No stated cut-off is given here; in the data, active = GI50 up to about 1.1 µM and inactive = higher.

Tell me the measured GI50 of `O=[N+]([O-])c1ccc(C2=Nn3c(nnc3-c3ccccc3)SC2)o1` , please.
20.8 µM (inactive)

Tell me the measured GI50 of CN(C)CC1(C)CC/C(=C\c2ccc(Cl)cc2)C1=O (stereo not given) , please.
59.2 µM (inactive)

Tell me the measured GI50 of `CNN1C(=O)c2c(N)c(C#N)c(-c3ccccc3)c(-c3ccccc3)c2C1=O` , please.
91.6 µM (inactive)

Tell me the measured GI50 of `COc1cc2nc(-c3cccs3)[nH]c(=O)c2cc1OC` , please.
> 100 µM (inactive)

Tell me the measured GI50 of `COC(=O)C(=NNc1ccccc1[N+](=O)[O-])C(=O)OC` , please.
> 100 µM (inactive)
